Here the recorded remaining at 2 h is given for each entry.
# Assay Overview: Stability in rat liver microsomes assessed as parent compound remaining after 2 hrs by LC-MS/MS analysis
# Type: ADME, microsome
# Experimental Context: read-out: Stability
Unit % implied. Number only.

Compound Smiles | remaining at 2 h [%]
CCS(=O)(=O)c1ccc(CC(=O)Nc2ccc(C(C)(C)C(=O)Nc3ccccc3C)cc2)cc1 | 6
CCS(=O)(=O)c1ccc(CC(=O)Nc2ccc(C(C)(C)C(=O)Nc3ccc(F)cc3F)c(F)c2)cc1 | 89
CCS(=O)(=O)c1ccc(CC(=O)Nc2ccc(C(C)(C)C(=O)Nc3ccncc3)cc2)cc1 | 25
CCS(=O)(=O)c1ccc(CC(=O)Nc2ccc(C(C)(C)C(=O)Nc3cc(Cl)ccn3)cc2)cc1 | 8.1
CCS(=O)(=O)c1ccc(CC(=O)Nc2ccc(C(C)(C)C(=O)Nc3cc(C(F)(F)F)ccn3)cc2)cc1 | 23

Task: Specify remaining at 2 h for CCS(=O)(=O)c1ccc(CC(=O)Nc2ccc(C(C)(C)C(=O)Nc3ccc(F)cc3F)cc2)cc1 and stop.
Output: 73

Task: Specify remaining at 2 h for CCS(=O)(=O)c1ccc(CC(=O)Nc2ccc(C(C)(C)C(=O)Nc3ccccn3)cc2)cc1 and stop.
Output: 36

Task: Specify remaining at 2 h for CCS(=O)(=O)c1ccc(CC(=O)Nc2ccc(C(C)(C)C(=O)Nc3ccccc3)cc2)cc1 and stop.
Output: 30

Task: Specify remaining at 2 h for CCS(=O)(=O)c1ccc(CC(=O)Nc2ccc(C(C)(C)C(=O)Nc3cccc(C(F)(F)F)n3)cc2)cc1 and stop.
Output: 71

Task: Specify remaining at 2 h for CCS(=O)(=O)c1ccc(CC(=O)Nc2ccc(C(C)(C)C(=O)Nc3ccc(F)cc3)c(F)c2)cc1 and stop.
Output: 77

Task: Specify remaining at 2 h for CCS(=O)(=O)c1ccc(CC(=O)Nc2ccc(C(C)(C)C(=O)Nc3ncccc3F)cc2)cc1 and stop.
Output: 80

Task: Specify remaining at 2 h for CCS(=O)(=O)c1ccc(CC(=O)Nc2ccc(C(C)(C)C(=O)Nc3cc(F)ccn3)cc2)cc1 and stop.
Output: 47

Task: Specify remaining at 2 h for CCS(=O)(=O)c1ccc(CC(=O)Nc2ccc(C(C)(C)C(=O)Nc3cc(C#N)ccn3)c(F)c2)cc1 and stop.
Output: 71

###

# Assay Overview: Stability in human liver microsomes assessed as parent compound remaining after 2 hrs by LC-MS/MS analysis
# Format: ADME, microsome
# Experimental Context: read-out: Stability
Hi! Could you tag entries with remaining at 2 h below 70% as rule met, and those at or above as rule not met? Much appreciated.

Worked cases, answers included:
Compound Smiles | Assigned Label
CCS(=O)(=O)c1ccc(CC(=O)Nc2ccc(C(C)(C)C(=O)Nc3ccc(F)cc3)c(F)c2)cc1 | rule met
CCS(=O)(=O)c1ccc(CC(=O)Nc2ccc(C(C)(C)C(=O)Nc3cc(C#N)ccn3)cc2)cc1 | rule not met
CCS(=O)(=O)c1ccc(CC(=O)Nc2ccc(C(C)(C)C(=O)Nc3ccc(F)cc3F)cc2)cc1 | rule not met
CCS(=O)(=O)c1ccc(CC(=O)Nc2ccc(C(C)(C)C(=O)Nc3ccccc3F)cc2)cc1 | rule met
CCS(=O)(=O)c1ccc(CC(=O)Nc2ccc(C(C)(C)C(=O)Nc3ccccc3)cc2)cc1 | rule met

Task: remaining at 2 h strictly < 70% for this compound? CCS(=O)(=O)c1ccc(CC(=O)Nc2ccc(C(C)(C)C(=O)Nc3ccncc3)cc2)cc1
Output: rule met

Task: remaining at 2 h strictly < 70% for this compound? CCS(=O)(=O)c1ccc(CC(=O)Nc2ccc(C(C)(C)C(=O)Nc3ccc(F)cc3)cc2)cc1
Output: rule not met

Task: remaining at 2 h strictly < 70% for this compound? CCS(=O)(=O)c1ccc(CC(=O)Nc2ccc(C(C)(C)C(=O)Nc3cc(Cl)ccn3)cc2)cc1
Output: rule met

Task: remaining at 2 h strictly < 70% for this compound? CCS(=O)(=O)c1ccc(CC(=O)Nc2ccc(C(C)(C)C(=O)Nc3ccccn3)cc2)cc1
Output: rule met

###

# Assay Overview: Solubility of the compound in NaCl/HCl buffer at pH 1.2 by shake-flask method
# Assay type: physicochemical
Here the recorded solubility thermodynamic is given for each entry.
Unit µM implied. Number only.

These solved cases illustrate the format of a correct answer.
Compound Smiles | Units Of Measure | Endpoint Result
CCS(=O)(=O)c1ccc(CC(=O)Nc2ccc(C(C)(C)C(=O)Nc3cccc(C(F)(F)F)n3)cc2)cc1 | µM | 1.1
CCS(=O)(=O)c1ccc(CC(=O)Nc2ccc(C(C)(C)C(=O)Nc3ccccc3)cc2)cc1 | µM | 46.9

Shift focus to the following entry.
Task: Specify solubility thermodynamic for CCS(=O)(=O)c1ccc(CC(=O)Nc2ccc(C(C)(C)C(=O)Nc3cc(C#N)ccn3)c(F)c2)cc1 and stop.
Output: 30

###

Here the recorded pIC50 is given for each entry.
# System Under Test: Nuclear receptor ROR-gamma (Homo sapiens)
# Sequence (P51449 whole entry, the tested form may be a part): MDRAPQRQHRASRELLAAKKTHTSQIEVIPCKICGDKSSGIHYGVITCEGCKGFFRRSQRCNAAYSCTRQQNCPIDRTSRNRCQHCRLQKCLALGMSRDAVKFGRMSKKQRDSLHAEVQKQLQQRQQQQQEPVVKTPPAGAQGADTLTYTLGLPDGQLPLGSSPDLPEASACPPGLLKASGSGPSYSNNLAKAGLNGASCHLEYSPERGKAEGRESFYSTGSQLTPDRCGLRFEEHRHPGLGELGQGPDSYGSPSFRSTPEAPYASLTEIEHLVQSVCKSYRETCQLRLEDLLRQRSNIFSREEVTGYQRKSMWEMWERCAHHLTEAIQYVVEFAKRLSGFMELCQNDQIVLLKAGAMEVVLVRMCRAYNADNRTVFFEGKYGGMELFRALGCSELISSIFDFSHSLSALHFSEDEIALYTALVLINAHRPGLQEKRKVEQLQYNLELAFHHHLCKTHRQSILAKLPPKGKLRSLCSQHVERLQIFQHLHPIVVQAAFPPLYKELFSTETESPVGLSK
# Assay Overview: Transrepression of recombinant human GAL4-DBD fused RORgammat LBD expressed in HEK293 cells after 20 hrs by luciferase reporter gene assay
# Type: cell-based
Entry type: numeric. Quantity: pIC50, the -log10 of concentration in molar units.

Task: Specify pIC50 for CCS(=O)(=O)c1ccc(CC(=O)Nc2ccc(C(C)(C)C(=O)Nc3cccc(F)c3)cc2)cc1 and stop.
Output: 8.01

Task: Specify pIC50 for CCS(=O)(=O)c1ccc(CC(=O)Nc2ccc(C(C)(C)C(=O)Nc3cc(C(F)(F)F)ccn3)cc2)cc1 and stop.
Output: 7.60

Task: Specify pIC50 for CCS(=O)(=O)c1ccc(CC(=O)Nc2ccc(C(C)(C)C(=O)Nc3ccc(F)cc3F)cc2)cc1 and stop.
Output: 7.02

Task: Specify pIC50 for CCS(=O)(=O)c1ccc(CC(=O)Nc2ccc(C(C)(C)C(=O)Nc3ccccc3F)cc2)cc1 and stop.
Output: 8.36

Task: Specify pIC50 for CCS(=O)(=O)c1ccc(CC(=O)Nc2ccc(C(C)(C)C(=O)Nc3ccccc3C)cc2)cc1 and stop.
Output: 6.85

Task: Specify pIC50 for CCOC(=O)C(C)(C)c1ccc(NC(=O)Cc2ccc(S(=O)(=O)CC)cc2)cc1 and stop.
Output: 6.40

Task: Specify pIC50 for CCS(=O)(=O)c1ccc(CC(=O)Nc2ccc(C(C)(C)C(=O)N(C)C)cc2)cc1 and stop.
Output: 6.43

###

# System Under Test: UniProt P51449
# Assay Overview: Transrepression of recombinant human GAL4-DBD fused RORgammat LBD expressed in HEK293 cells after 20 hrs by luciferase reporter gene assay
# Type: cell-based
pIC50: −log10 of the molar value.
Classification field: enter MET for pIC50 values not below 7, NOT MET for values below it.

Task: Decide: is the reported value of pIC50 for CCS(=O)(=O)c1ccc(CC(=O)Nc2ccc(C(C)(C)C(=O)Nc3ccc(F)cc3F)c(F)c2)cc1 equal to or greater than 7?
Output: MET

Task: Decide: is the reported value of pIC50 for CCS(=O)(=O)c1ccc(CC(=O)Nc2ccc(C(C)(C)C(=O)Nc3ccc(F)cc3)cc2)cc1 equal to or greater than 7?
Output: MET

Task: Decide: is the reported value of pIC50 for CCS(=O)(=O)c1ccc(CC(=O)Nc2ccc(C(C)(C)C(=O)Nc3ccccn3)cc2)cc1 equal to or greater than 7?
Output: MET

Task: Decide: is the reported value of pIC50 for CCS(=O)(=O)c1ccc(CC(=O)Nc2ccc(C(C)(C)C(=O)Nc3ncccc3F)cc2)cc1 equal to or greater than 7?
Output: NOT MET

Recorded values, source ChEMBL document CHEMBL4261613.
